The following compounds are listed with their measured inhibition at 0.1 µM values.
target.under.test: human CCR10 (Homo sapiens)
Construct: expressed in transfected cells; host or cells: KJMGER8 cell (cell line derived from Namalwa cell); expression induced with 10 nmol/L β-estradiol
Sequence (P46092 whole entry): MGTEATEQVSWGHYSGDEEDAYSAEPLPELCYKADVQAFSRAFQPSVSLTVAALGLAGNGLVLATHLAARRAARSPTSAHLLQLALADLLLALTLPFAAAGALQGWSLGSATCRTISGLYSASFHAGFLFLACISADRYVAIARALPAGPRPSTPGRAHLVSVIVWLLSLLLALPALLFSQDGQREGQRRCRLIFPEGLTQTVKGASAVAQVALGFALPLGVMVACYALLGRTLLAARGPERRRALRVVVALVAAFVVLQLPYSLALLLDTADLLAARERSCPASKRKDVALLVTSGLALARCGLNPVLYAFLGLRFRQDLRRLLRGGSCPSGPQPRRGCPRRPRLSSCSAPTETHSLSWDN
run.description: Calcium assay of human CCR10 (inhibition of CTACK-induced increase in intracellular calcium ion concentration in hCCR10G16 cells)
Assay type: cell-based
study.conditions: test compound 100 nmol/L; human recombinant CTACK; hCCR10G16 cells (KJMGER8/Namalwa-derived, Gα16 co-expressed); FLIPR or FDSS; read-out: Inhibitory rate (%) for an increase in calcium ion concentration

Recorded inhibition at 0.1 µM, per entry:
1. CCNC(=S)NS(=O)(=O)c1cnn2c(Nc3ccc(F)cc3C)c(C(=O)N3CCC(c4ccccc4)CC3)cnc12 = 81.8%
2. CCC(=O)NS(=O)(=O)c1cnn2c(Nc3cc(Cl)ccc3Cl)c(C(=O)N3CCC4(CC3)OCc3ccccc34)cnc12 = > 100%
3. Cc1cc(F)ccc1Nc1c(C(=O)N2CCC(c3ccccc3)CC2)cnc2c(S(=O)(=O)NS(C)(=O)=O)cnn12 = 88.8%
4. CCC(=O)NS(=O)(=O)c1cnn2c(Nc3cc(C)c(F)cc3Cl)c(C(=O)N3CCC(c4ccc(F)cc4)CC3)cnc12 = > 100%
5. Cc1ccc(Cl)c(Nc2c(C(=O)N3CCC4(CC3)OCc3ccccc34)cnc3c(S(=O)(=O)NC(=O)NC4CCOCC4)cnn23)c1 = 62.3%

Prompt: What value of measured inhibition at 0.1 µM is listed for CCNC(=O)NS(=O)(=O)c1cnn2c(Nc3cc(C)ccc3Cl)c(C(=O)N3CCC(c4ccc(F)cc4)CC3)cnc12 ?
Completion: > 100%

Prompt: Now give it for COC(=O)NS(=O)(=O)c1cnn2c(Nc3ccccc3Cl)c(C(=O)N3CCC(c4ccccc4)CC3)cnc12 too.
Completion: 99.6%

Prompt: How about COC(=O)NS(=O)(=O)c1cnn2c(Nc3ccc(F)cc3C)c(C(=O)N3CCC(c4ccccc4)CC3)cnc12 ?
Completion: 90.7%
